target: CaM (Bos taurus); construct: made in house; host or cells: E. coli BL21 (DE3); assay: Pull-down assay with immobilized protein and LSM libraries; assay type: binding, bovine; details: H12 library; 1:2 stoichiometry assumed; read-out: Surface mapping KD (apparent)
Form field: pKd (one value per entry).
pKd here is simply -log10 of the concentration when that concentration is written in mol/L.

Previously resolved entries follow.
smiles	target_or_system	pKd
CC(C)C[C@@H](CC(=O)N[C@H]1CCC[C@@H]1C(=O)N[C@H]1CCC[C@@H]1C(N)=O)NC(=O)[C@H]1CCC[C@@H]1NC(=O)[C@H]1CCC[C@@H]1NC(=O)C[C@H](CC(N)=O)NC(=O)[C@H]1CCC[C@@H]1NC(=O)[C@H]1CCC[C@@H]1N	CaM (Bos taurus)	3.67
CC[C@H](C)[C@@H](CC(=O)N[C@H]1CCC[C@@H]1C(=O)N[C@H]1CCC[C@@H]1C(=O)N[C@H](CC(=O)N[C@H]1CCC[C@@H]1C(=O)N[C@H]1CCC[C@@H]1C(N)=O)Cc1ccc(O)cc1)NC(=O)[C@H]1CCC[C@@H]1NC(=O)[C@H]1CCC[C@@H]1N	CaM (Bos taurus)	4.55
NC(=O)CC[C@@H](CC(=O)N[C@H]1CCC[C@@H]1C(=O)N[C@H]1CCC[C@@H]1C(=O)N[C@H](CC(=O)N[C@H]1CCC[C@@H]1C(=O)N[C@H]1CCC[C@@H]1C(N)=O)Cc1ccccc1)NC(=O)[C@H]1CCC[C@@H]1NC(=O)[C@H]1CCC[C@@H]1N	CaM (Bos taurus)	3.74

Query :: I have this molecule here, `CC(C)C[C@@H](CC(=O)N[C@H]1CCC[C@@H]1C(=O)N[C@H]1CCC[C@@H]1C(N)=O)NC(=O)[C@H]1CCC[C@@H]1NC(=O)[C@H]1CCC[C@@H]1NC(=O)C[C@@H](NC(=O)[C@H]1CCC[C@@H]1NC(=O)[C@H]1CCC[C@@H]1N)C(C)C` , and I need its recorded pKd.
Result :: 3.79

====

target: Gal-1 (Homo sapiens, UniProt P09382); construct: made in house; host or cells: E. coli BL21(DE3); assay: Pull-down assay with immobilized protein and LSM libraries; type: binding; conditions: H12 library; 1:1 binding assumed; read-out: Surface mapping KD (apparent)
Sequence (P09382 whole entry): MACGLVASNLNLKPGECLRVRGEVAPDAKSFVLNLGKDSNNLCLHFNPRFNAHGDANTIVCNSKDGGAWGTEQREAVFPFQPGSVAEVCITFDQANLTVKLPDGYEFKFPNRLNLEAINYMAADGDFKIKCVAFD
readout: pKd
Schema: pKd number; meaning minus log10 of the concentration expressed in molar units.

smiles	pKd
CC[C@H](C)[C@@H](CC(=O)N[C@H]1CCC[C@@H]1C(=O)N[C@H]1CCC[C@@H]1C(=O)N[C@H](CC(=O)N[C@H]1CCC[C@@H]1C(=O)N[C@H]1CCC[C@@H]1C(N)=O)C(C)C)NC(=O)[C@H]1CCC[C@@H]1NC(=O)[C@H]1CCC[C@@H]1N	3.33

Consider now this further compound.
Query :: Fill in the recorded pKd for this compound, with Gal-1 (Homo sapiens, UniProt P09382) as test system: `CSCC[C@@H](CC(=O)N[C@H]1CCC[C@@H]1C(=O)N[C@H]1CCC[C@@H]1C(N)=O)NC(=O)[C@H]1CCC[C@@H]1NC(=O)[C@H]1CCC[C@@H]1NC(=O)C[C@H](CCCNC(=N)N)NC(=O)[C@H]1CCC[C@@H]1NC(=O)[C@H]1CCC[C@@H]1N`
Result :: 3.70
